These entries and their values trace back to the supplement of paper PMC12783771.

Would you kindly list sfGFP reporter fluorescence for each of these variants?
B1: library; numbered along this chain (parent)
chain: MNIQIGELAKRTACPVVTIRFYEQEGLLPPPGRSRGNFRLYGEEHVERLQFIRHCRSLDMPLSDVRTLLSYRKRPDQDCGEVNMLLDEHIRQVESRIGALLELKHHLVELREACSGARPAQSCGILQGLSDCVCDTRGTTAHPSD

# Variants of: B1
# procedure-text: sfGFP reporter fluorescence (15 h) (µM FITC); higher = higher leak
# experimental-setup: library round: Round 0; ligand: none

Worked set:
alteration: C55I
sfGFP reporter fluorescence: 0.0583
//
alteration: L62C
sfGFP reporter fluorescence: 0.061
//
alteration: G36F
sfGFP reporter fluorescence: 0.0594

Read the next record carefully.
Notebook: L126D , sfGFP reporter fluorescence read as 0.0597
